target_entity: NaV1.1 (Homo sapiens (Human), UniProt P35498)
assay_explanation: Sodium Influx Assay (Flux), NaV1.1
Format: cell-based
test_conditions: Trex HEK293 cells, ANG2 dye; arithmetic mean
Counter-ions that a name gives are not always drawn.
observed_property: pIC50
Give bare numbers, as −log10 of the molar value.

Go through the list and state pIC50 for each entry.
1. Cc1cccc(CN2CC[C@H](Nc3cc(F)c(S(=O)(=O)Nc4nccs4)cc3Cl)C2)c1 [Example 86]
2. CN(c1ccc(S(=O)(=O)Nc2ncns2)cc1Cl)[C@H]1CCN(Cc2cccc(Cl)c2F)C1 [Example 32]
3. Cc1cc(S(=O)(=O)Nc2cscn2)c(F)cc1N(C)[C@H]1CCN(Cc2ccc(C(F)(F)F)o2)C1 [Example 142]

Data returned:
5.27
5.18
5.43

Required: pIC50, one value per molecule below.
1. CC1(Nc2ccc(S(=O)(=O)Nc3nccs3)cc2Cl)CN(Cc2ccccc2)C1 [Example 25, 2,2,2-trifluoroacetate]
2. Cc1cc(S(=O)(=O)Nc2cscn2)c(F)cc1N[C@@H]1CCN(Cc2ccccc2)C1 [Example 271, formate]
3. Cc1c(O[C@@]2(C)CCN(Cc3ccccc3)C2)cc(F)c(S(=O)(=O)Nc2cscn2)c1F [Example 158, formate]

Data returned:
1: 5.24; 2: 5.06; 3: 4.62

Quick one: give me pIC50 for each item below, same order please.
1. CN(c1cc(F)c(S(=O)(=O)Nc2cscn2)cc1Cl)[C@H]1CCN(Cc2ccccc2)C1 [Example 38, 2,2,2-trifluoroacetate]
2. CN(c1ccc(S(=O)(=O)Nc2cscn2)cc1Cl)[C@H]1CCN(Cc2cc(Cl)ccc2F)C1 [Example 254, formate]

Data returned:
1: 4.75; 2: 5.63

* * *

target_entity: NaV1.5 (Homo sapiens (Human), UniProt Q14524)
Sequence (Q14524 other isoform, or with tags, fused parts or gaps): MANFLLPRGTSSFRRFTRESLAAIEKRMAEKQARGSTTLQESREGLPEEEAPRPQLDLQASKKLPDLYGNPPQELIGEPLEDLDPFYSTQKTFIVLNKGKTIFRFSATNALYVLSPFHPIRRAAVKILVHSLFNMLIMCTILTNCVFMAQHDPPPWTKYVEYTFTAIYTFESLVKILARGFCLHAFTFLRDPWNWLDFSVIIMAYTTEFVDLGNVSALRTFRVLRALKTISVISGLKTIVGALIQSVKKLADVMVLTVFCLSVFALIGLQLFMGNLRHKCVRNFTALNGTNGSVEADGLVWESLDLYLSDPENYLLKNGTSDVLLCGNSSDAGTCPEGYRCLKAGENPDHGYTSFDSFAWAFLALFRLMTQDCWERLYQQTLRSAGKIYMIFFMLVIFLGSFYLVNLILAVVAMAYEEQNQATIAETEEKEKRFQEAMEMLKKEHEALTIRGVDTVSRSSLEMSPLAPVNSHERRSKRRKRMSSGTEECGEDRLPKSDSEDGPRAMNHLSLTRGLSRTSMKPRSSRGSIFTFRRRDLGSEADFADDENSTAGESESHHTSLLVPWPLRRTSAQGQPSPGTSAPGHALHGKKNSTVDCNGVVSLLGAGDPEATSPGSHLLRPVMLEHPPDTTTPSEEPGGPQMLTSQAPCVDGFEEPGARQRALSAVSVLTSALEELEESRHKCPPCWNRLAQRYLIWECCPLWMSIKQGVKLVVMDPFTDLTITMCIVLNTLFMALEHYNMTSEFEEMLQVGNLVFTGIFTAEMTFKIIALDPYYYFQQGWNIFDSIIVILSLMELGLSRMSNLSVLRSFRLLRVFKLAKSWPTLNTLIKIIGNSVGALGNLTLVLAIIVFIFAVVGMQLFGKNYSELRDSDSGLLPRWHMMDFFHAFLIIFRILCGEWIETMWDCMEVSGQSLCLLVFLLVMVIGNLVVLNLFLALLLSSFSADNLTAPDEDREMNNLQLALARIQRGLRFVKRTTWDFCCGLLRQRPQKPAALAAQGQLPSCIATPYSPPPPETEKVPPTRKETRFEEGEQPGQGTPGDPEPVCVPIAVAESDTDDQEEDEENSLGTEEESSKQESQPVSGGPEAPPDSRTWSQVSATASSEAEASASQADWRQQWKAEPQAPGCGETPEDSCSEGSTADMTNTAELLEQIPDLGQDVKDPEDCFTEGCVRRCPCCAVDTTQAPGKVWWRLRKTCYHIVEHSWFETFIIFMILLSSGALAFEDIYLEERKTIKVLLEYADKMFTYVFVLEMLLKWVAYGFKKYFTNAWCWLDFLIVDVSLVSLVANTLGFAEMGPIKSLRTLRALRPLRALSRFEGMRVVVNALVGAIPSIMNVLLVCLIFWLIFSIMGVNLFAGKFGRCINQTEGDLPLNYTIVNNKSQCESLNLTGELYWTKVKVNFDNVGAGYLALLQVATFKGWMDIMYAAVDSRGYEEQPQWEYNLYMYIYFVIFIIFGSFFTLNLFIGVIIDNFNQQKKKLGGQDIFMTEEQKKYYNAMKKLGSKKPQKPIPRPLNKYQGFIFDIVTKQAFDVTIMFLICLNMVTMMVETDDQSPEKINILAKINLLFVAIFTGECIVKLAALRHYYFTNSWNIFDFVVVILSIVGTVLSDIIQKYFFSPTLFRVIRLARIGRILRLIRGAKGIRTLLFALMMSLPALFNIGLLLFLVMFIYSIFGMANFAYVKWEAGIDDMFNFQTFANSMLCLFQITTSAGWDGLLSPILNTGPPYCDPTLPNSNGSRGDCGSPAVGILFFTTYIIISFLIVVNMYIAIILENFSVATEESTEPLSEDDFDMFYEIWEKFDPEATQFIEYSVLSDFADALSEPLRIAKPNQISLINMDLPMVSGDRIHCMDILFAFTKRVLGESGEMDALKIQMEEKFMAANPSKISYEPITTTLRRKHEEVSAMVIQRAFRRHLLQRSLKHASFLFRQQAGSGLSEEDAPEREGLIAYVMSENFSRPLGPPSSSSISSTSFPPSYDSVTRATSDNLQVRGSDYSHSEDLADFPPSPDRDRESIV
assay_explanation: Sodium Influx Assay (Flux), NaV1.5
test_conditions: read-out: Flux NaV1.5 IC50; Trex HEK293 cells, ANG2 dye; arithmetic mean
Kindly supply the reported pIC50 values for the records listed here.
Answers are plain numbers, as −log10 of the molar value.

Data request: Reported pIC50 for CN(c1ccc(S(=O)(=O)Nc2cscn2)c(F)c1Cl)[C@H]1CCN(Cc2ccccc2)C1 [Example 328, 2,2,2-trifluoroacetate] : what is it?
Data returned: 4.74

Please look at the items below and tell me pIC50 for each one, in order.
1. CN(c1cc(F)c(S(=O)(=O)Nc2cscn2)cc1Br)[C@H]1CCN(Cc2ccccc2)C1 [Example 230, 2,2,2-trifluoroacetate]
2. CN(c1cc(F)c(S(=O)(=O)Nc2cscn2)cc1Cl)[C@H]1CCN(Cc2cccc(N3CCC3)n2)C1 [Example 317, 2,2,2-trifluoroacetate]
3. CN(c1ccc(S(=O)(=O)Nc2nccs2)cc1Cl)[C@H]1CCN(Cc2cccc(C(F)F)c2)C1 [Example 28]
4. C[C@H](c1ccccc1)N1CCC(Oc2cc(F)c(S(=O)(=O)Nc3cscn3)cc2Cl)CC1 [Example 222, 2,2,2-trifluoroacetate]
5. Cc1c(NC2(C)CN(Cc3ccccc3)C2)cc(F)c(S(=O)(=O)Nc2cscn2)c1F [Example 233, 2,2,2-trifluoroacetate]

Data returned:
1. 4.64
2. 5.09
3. 5.24
4. 4.71
5. 4.56

* * *

target_entity: NaV1.5 (Homo sapiens (Human), UniProt Q14524)
assay_explanation: Sodium Influx Assay (Flux), NaV1.5
test_conditions: read-out: Flux NaV1.5 IC50; Trex HEK293 cells, ANG2 dye; arithmetic mean
Label 1 when IC50 is strictly below 10 µM; at or above that, label 0.

Data request: Is IC50 of Cc1c(N(C)[C@H]2CCN(Cc3cc(F)ccc3F)C2)ccc(S(=O)(=O)Nc2cscn2)c1F [Example 322, 2,2,2-trifluoroacetate] strictly below 10 µM?
Data returned: 1

# next molecule below
Data request: Say whether its IC50 is strictly beneath 10 µM. Entry: Cc1cc(C)cc(CN2CCC(Oc3ccc(S(=O)(=O)Nc4nccs4)cc3Cl)CC2)c1 [Example 94]
Data returned: 1
